# IC50 listing for each entry below
# target desc: EGFR (human)
Reply numerically in nM, unit not repeated.

> print(dat)
                         compound.structure  measured.number
1  N#C/C(=C\c1ccc(O)c(O)c1)C(=O)Nc1cccc(Cl)c1             1400

--- query ---
# lookup: EGFR (human) IC50, key = `COc1cc(/C=C(\C#N)C(=O)Nc2cccc(Cl)c2)cc(S(C)(=O)=O)c1O` 1400

###

System: EGFR (human) (UniProt P00533) | Read-out: pIC50
Sequence (P00533 whole entry, looked up): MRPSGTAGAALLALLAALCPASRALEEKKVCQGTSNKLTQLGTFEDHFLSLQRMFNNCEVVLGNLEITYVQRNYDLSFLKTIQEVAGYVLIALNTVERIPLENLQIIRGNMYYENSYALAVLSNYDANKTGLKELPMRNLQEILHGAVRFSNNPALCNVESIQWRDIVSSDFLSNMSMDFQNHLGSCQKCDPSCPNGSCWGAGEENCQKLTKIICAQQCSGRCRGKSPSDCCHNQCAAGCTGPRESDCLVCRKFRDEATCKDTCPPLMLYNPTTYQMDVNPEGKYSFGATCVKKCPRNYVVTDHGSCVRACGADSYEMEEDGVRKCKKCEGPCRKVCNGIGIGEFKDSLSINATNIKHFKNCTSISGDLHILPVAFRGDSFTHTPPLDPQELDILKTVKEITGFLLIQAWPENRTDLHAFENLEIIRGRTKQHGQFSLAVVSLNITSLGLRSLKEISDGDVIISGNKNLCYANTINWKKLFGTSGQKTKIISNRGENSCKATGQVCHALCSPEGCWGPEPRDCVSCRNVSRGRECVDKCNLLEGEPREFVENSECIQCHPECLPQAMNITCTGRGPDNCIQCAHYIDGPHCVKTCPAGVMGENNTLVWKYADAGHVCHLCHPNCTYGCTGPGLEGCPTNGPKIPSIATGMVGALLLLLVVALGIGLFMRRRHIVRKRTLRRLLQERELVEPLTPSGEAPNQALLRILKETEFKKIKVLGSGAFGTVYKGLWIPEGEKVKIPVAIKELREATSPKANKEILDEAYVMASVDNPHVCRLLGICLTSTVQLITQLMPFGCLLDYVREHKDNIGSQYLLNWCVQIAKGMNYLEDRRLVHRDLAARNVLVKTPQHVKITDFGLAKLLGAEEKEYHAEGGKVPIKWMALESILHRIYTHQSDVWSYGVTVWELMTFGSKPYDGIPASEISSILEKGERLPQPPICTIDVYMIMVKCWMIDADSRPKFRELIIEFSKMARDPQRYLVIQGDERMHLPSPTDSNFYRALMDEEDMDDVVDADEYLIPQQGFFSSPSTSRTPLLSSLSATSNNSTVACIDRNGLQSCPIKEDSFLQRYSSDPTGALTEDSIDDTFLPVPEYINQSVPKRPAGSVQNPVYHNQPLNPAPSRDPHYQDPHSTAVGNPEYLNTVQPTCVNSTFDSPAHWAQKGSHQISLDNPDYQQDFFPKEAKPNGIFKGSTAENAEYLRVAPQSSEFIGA
Expect pIC50 as a plain number equal to -log10 of the molar concentration.

> print(dat)
                         compound.structure  property.measured  measured.number
1  COc1cc(/C=C(\C#N)C(=O)Nc2cccc(Cl)c2)cc(F)c1O              pIC50             5.80

For EGFR (human) (UniProt P00533), give pIC50 of the listed compound: `N#C/C(=C\c1cc(O)c(O)c(Cl)c1)C(=O)Nc1cccc(Cl)c1` 6.17

Tell me its pIC50 on EGFR (human) (UniProt P00533): `COc1cc(/C=C(\C#N)C(=O)Nc2cccc(Cl)c2)cc([N+](=O)[O-])c1O` 5.74

# assay system EGFR (human) (UniProt P00533): give pIC50 of `N#C/C(=C\c1cc(O)c(O)c(Br)c1Br)C(=O)Nc1cccc(Cl)c1` 6.55

Report pIC50 from EGFR (human) (UniProt P00533) testing of `COc1cc(/C=C(\C#N)C(=O)Nc2cccc(Cl)c2)cc(C)c1O` 6.38

Give pIC50 for this entry on EGFR (human) (UniProt P00533): `N#C/C(=C\c1cc(O)c(O)c(Cl)c1)C(=O)Nc1ccccc1` 5.92

Report the value of pIC50 obtained on EGFR (human) (UniProt P00533) for `N#C/C(=C\c1cc(O)c(O)c(F)c1)C(=O)Nc1cccc(Cl)c1` . 6.22

Identify measured pIC50 obtained with EGFR (human) (UniProt P00533) for `Cc1cccc(NC(=O)/C(C#N)=C/c2ccc(O)c(O)c2)c1` . 5.68

State the measured pIC50 (EGFR (human) (UniProt P00533)) of `COc1cc(/C=C(\C#N)C(=O)Nc2cccc(Cl)c2)ccc1O` 5.68

###

Measured pIC50 on EGFR (human) follows.
Quick note: pIC50 means taking -log10 of the concentration in moles per liter.

> print(dat)
                         compound.structure  measured.number
1  N#C/C(=C\c1cc(O)c(O)c(Br)c1)C(=O)Nc1cccc(Cl)c1             6.31

State measured pIC50 of the compound `N#C/C(C(=O)Nc1ccccc1)=C(\O)c1ccc(O)c(O)c1` with EGFR (human). 6.02

Answer briefly: pIC50 recorded on EGFR (human) for `Cc1cc(/C=C(\C#N)C(=O)Nc2cccc(Cl)c2)cc(O)c1O` 5.89

Fill in: pIC50 on EGFR (human), entry `COc1cc(/C=C(\C#N)C(=O)Nc2ccccc2)cc(Cl)c1O` 5.80

The reported numbers originate from the Kinase Knowledgebase extract (Sharma et al. 2016).
